The reported measurements were obtained from the kinase profiling compilation of Christmann-Franck et al. (2016).

Recorded kinase still bound, per cent of control by entry
# target.of.assay: NUAK2 (human) (UniProt Q9H093)
# Sequence (Q9H093 whole entry, looked up): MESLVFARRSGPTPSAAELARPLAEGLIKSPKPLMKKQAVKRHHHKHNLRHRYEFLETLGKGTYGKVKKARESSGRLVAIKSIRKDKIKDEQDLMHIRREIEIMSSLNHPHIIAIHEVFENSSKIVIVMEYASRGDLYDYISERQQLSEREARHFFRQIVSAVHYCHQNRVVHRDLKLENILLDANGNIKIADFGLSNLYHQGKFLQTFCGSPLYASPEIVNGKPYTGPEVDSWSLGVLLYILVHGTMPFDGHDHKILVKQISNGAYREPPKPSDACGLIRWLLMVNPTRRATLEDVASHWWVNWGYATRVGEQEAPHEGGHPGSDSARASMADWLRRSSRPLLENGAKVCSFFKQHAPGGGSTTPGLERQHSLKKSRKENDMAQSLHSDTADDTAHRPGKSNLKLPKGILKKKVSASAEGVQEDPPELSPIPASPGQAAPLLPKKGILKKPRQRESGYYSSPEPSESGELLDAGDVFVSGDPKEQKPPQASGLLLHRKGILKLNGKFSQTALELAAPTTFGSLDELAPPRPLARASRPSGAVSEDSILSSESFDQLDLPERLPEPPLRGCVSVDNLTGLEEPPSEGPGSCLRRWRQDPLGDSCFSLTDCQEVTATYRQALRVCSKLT
# protocol.notes: KINOMEscan competition binding
# condition.info: compound 1.0 µM
measured.quantity: kinase still bound, per cent of control

Cc1cc(NC(=O)c2cccc(NC(=O)/C=C/CN(C)C)c2)ccc1Nc1nccc(-c2cccnc2)n1 | 70%
CN(C)C/C=C/C(=O)Nc1cccc(C(=O)Nc2ccc(Nc3nccc(/C(C#N)=C4\Nc5ccccc5S4)n3)cc2)c1 | 100%
CN(C)C/C=C/C(=O)Nc1cccc(C(=O)Nc2ccc(Nc3nccc(-c4c(-c5ccccc5)nn5ccccc45)n3)cc2)c1 | 89%
CN(C)C/C=C/C(=O)Nc1cccc(C(=O)Nc2ccc(Nc3nccc(-c4cccnc4)n3)cc2)c1 | 31%

* * *

# target.of.assay: IGF1R (human) (UniProt P08069)
# Sequence (P08069 whole entry, looked up): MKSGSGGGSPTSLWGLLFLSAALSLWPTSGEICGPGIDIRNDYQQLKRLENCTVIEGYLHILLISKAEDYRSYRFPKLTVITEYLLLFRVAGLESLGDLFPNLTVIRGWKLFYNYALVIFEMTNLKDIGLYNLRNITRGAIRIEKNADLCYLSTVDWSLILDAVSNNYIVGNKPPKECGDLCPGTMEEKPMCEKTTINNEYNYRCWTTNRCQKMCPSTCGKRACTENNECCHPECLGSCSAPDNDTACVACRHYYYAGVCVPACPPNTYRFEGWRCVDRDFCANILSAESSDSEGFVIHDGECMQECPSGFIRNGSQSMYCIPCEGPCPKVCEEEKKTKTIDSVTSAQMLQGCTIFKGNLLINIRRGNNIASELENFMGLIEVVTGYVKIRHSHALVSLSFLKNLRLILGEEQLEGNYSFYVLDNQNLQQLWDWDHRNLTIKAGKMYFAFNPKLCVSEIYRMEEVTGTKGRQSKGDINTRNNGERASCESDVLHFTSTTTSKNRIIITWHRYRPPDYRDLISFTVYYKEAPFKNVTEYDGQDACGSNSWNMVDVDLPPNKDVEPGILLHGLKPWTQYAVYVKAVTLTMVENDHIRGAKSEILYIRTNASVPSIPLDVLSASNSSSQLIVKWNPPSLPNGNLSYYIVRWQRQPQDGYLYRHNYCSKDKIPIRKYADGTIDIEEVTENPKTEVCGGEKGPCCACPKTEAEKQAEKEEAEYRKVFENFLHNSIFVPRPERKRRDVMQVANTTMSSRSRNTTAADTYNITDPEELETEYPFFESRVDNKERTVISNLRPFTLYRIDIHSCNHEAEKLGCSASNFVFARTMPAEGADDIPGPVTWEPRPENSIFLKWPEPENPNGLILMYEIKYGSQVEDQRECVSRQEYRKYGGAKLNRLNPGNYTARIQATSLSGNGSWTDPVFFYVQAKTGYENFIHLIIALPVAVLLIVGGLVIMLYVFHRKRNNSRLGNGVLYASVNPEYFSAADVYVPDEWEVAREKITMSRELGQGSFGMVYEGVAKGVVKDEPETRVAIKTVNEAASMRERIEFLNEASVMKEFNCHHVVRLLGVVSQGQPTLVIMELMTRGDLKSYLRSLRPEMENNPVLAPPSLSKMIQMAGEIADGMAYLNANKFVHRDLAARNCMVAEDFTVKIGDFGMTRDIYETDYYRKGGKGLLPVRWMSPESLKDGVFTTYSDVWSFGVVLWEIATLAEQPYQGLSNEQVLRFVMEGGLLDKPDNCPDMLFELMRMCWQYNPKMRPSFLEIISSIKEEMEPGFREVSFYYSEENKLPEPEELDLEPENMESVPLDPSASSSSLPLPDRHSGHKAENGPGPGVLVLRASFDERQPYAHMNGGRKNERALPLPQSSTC
# protocol.notes: KINOMEscan competition binding
# condition.info: compound 1.0 µM
measured.quantity: kinase still bound, per cent of control (%)

CN(C)C/C=C/C(=O)Nc1cccc(C(=O)Nc2ccc(Nc3nccc(-c4cccnc4)n3)cc2)c1 | 100
CN(C)C/C=C/C(=O)Nc1cccc(C(=O)Nc2ccc(Nc3nccc(-c4c(-c5ccccc5)nn5ccccc45)n3)cc2)c1 | 100
CN(C)C/C=C/C(=O)Nc1cccc(C(=O)Nc2ccc(Nc3nccc(/C(C#N)=C4\Nc5ccccc5S4)n3)cc2)c1 | 100
Cc1cc(NC(=O)c2cccc(NC(=O)/C=C/CN(C)C)c2)ccc1Nc1nccc(-c2cccnc2)n1 | 93

* * *

# target.of.assay: CDK9 (human)
# protocol.notes: KINOMEscan competition binding
# condition.info: compound 1.0 µM
measured.quantity: kinase still bound, per cent of control (%)

CN(C)C/C=C/C(=O)Nc1cccc(C(=O)Nc2ccc(Nc3nccc(-c4cccnc4)n3)cc2)c1 | 55
CN(C)C/C=C/C(=O)Nc1cccc(C(=O)Nc2ccc(Nc3nccc(/C(C#N)=C4\Nc5ccccc5S4)n3)cc2)c1 | 100
CN(C)C/C=C/C(=O)Nc1cccc(C(=O)Nc2ccc(Nc3nccc(-c4c(-c5ccccc5)nn5ccccc45)n3)cc2)c1 | 100
Cc1cc(NC(=O)c2cccc(NC(=O)/C=C/CN(C)C)c2)ccc1Nc1nccc(-c2cccnc2)n1 | 100

* * *

# target.of.assay: OXSR1 (human) (UniProt O95747)
# Sequence (O95747 whole entry, looked up): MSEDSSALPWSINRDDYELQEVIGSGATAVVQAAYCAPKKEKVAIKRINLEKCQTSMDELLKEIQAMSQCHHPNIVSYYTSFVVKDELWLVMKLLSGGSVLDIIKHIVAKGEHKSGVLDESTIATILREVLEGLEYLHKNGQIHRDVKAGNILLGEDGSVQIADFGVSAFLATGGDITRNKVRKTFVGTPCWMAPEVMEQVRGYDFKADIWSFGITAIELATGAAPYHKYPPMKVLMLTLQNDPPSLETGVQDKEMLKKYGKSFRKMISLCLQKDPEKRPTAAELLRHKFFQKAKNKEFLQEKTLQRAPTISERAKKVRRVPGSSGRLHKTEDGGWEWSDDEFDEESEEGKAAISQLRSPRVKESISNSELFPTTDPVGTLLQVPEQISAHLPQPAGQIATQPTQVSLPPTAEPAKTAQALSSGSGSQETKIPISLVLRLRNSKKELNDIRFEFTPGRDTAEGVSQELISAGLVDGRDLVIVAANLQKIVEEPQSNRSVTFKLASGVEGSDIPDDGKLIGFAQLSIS
# protocol.notes: KINOMEscan competition binding
# condition.info: compound 1.0 µM
Recorded measurements of kinase still bound, per cent of control, one per entry
measured.quantity: kinase still bound, per cent of control (%)

CN(C)C/C=C/C(=O)Nc1cccc(C(=O)Nc2ccc(Nc3nccc(/C(C#N)=C4\Nc5ccccc5S4)n3)cc2)c1 | 100
CN(C)C/C=C/C(=O)Nc1cccc(C(=O)Nc2ccc(Nc3nccc(-c4cccnc4)n3)cc2)c1 | 96
CN(C)C/C=C/C(=O)Nc1cccc(C(=O)Nc2ccc(Nc3nccc(-c4c(-c5ccccc5)nn5ccccc45)n3)cc2)c1 | 100
Cc1cc(NC(=O)c2cccc(NC(=O)/C=C/CN(C)C)c2)ccc1Nc1nccc(-c2cccnc2)n1 | 89

* * *

# target.of.assay: PIP4K2C (human) (UniProt Q8TBX8)
# Sequence (Q8TBX8 whole entry, looked up): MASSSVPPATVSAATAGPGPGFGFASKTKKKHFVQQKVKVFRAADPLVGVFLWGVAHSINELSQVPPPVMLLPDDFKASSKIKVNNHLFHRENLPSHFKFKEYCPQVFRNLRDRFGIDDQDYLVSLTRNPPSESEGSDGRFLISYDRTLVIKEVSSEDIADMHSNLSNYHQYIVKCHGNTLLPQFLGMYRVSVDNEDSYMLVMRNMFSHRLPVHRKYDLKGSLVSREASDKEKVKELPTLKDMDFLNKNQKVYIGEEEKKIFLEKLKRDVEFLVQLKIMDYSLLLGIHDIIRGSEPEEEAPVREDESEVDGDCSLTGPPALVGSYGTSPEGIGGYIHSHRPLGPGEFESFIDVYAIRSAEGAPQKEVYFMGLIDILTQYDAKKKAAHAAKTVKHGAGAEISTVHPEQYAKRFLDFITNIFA
# protocol.notes: KINOMEscan competition binding
# condition.info: compound 1.0 µM
Reported kinase still bound, per cent of control is given for each of the following molecules.
measured.quantity: kinase still bound, per cent of control (%)

CN(C)C/C=C/C(=O)Nc1cccc(C(=O)Nc2ccc(Nc3nccc(-c4cccnc4)n3)cc2)c1 | 3.3
CN(C)C/C=C/C(=O)Nc1cccc(C(=O)Nc2ccc(Nc3nccc(-c4c(-c5ccccc5)nn5ccccc45)n3)cc2)c1 | 86
CN(C)C/C=C/C(=O)Nc1cccc(C(=O)Nc2ccc(Nc3nccc(/C(C#N)=C4\Nc5ccccc5S4)n3)cc2)c1 | 35
Cc1cc(NC(=O)c2cccc(NC(=O)/C=C/CN(C)C)c2)ccc1Nc1nccc(-c2cccnc2)n1 | 46
